- System: Phakopsora pachyrhizi
- measurementProtocol: Asian soybean rust, whole-plant fungicidal activity (PHAKPA)
- Format: in vivo
- conditionDescription: 72 h, 3DC (3 day curative), read-out: % Disease Control Rating PHAKPA
// reported pest or weed control at 200 ppm per item
quantity: pest or weed control at 200 ppm

{"cpdSmiles": "CCc1cccc(CC(=O)c2cc(C)c(/N=C/N(C)CC)cc2C)c1", "result": "> 85%"}
{"cpdSmiles": "CCN(C)/C=N/c1cc(C)c(C(=O)Cc2ccc(C)cc2)cc1C", "result": "> 85%"}
{"cpdSmiles": "CCN(C)/C=N/c1cc(C)c(C(=O)CC(C)(C)C)cc1C", "result": "> 85%"}
{"cpdSmiles": "CC/C(=N\\c1cc(C)c(C(=O)Cc2c(F)cc(F)cc2F)cc1C)N(C)CC", "result": "20 to 50%"}
{"cpdSmiles": "CCN(C)/C=N/c1ccc(C(=O)Cc2cccc(C(F)(F)F)c2)c(C)c1C", "result": "> 85%"}
